# Test system: Cabbage Looper [Trichoplusia ni (Hubner)]
# Test summary: Cabbage looper insecticidal test
# Assay type: in vivo
# Conditions used: second-instar larvae, percent in solution; 3-5 days
Class field: derived from LC50, CL; ranges range A (below 0.0005%), range B (0.0005% to below 0.007%), range C (0.007% or more)

Example results:
- Cpd smiles: "CC(C)C(=Nc1cccc(C(F)(F)F)c1)OCc1ccc(F)c(Oc2ccc(Cl)cc2)c1"
  Classification: "range A"
- Cpd smiles: "CC(=O)c1cccc(N=C(OCc2cccc(Oc3ccccc3)c2)C(C)C)c1"
  Classification: "range C"
- Cpd smiles: "CC(C)C(=Nc1ccc(C(F)(F)F)cc1)OCc1ccc(F)c(Oc2ccccc2)c1"
  Classification: "range B"
- Cpd smiles: "CC(C)C(=Nc1ccc(OC(F)(F)F)cc1)OCc1ccc(F)c(Oc2ccc(Cl)cc2)c1"
  Classification: "range B"
- Cpd smiles: "C=CCOc1cccc(COC(=Nc2ccc(Cl)c(Cl)c2)C(C)C)c1"
  Classification: "range C"

Which class does CC(C)C(=Nc1ccc(Cl)c(F)c1)OCc1ccc(F)c(Oc2ccc(F)cc2)c1 fall in?
range A

Pick a category. Item: CC(C)C(=Nc1ccc([N+](=O)[O-])cc1)OCc1coc(Cc2ccccc2)c1
range C

Band for CC(C)C(=Nc1ccc(OC(F)(F)F)cc1)OCc1ccc(F)c(Oc2ccc(F)c(F)c2)c1 ?
range A

Could you place COCc1c(F)c(F)c(COC(=Nc2ccc(F)c(Cl)c2)C(C)C)c(F)c1F in its proper category? Many thanks.
range B

Form field 'band' for CC(C)CC(=Nc1cc(Cl)cc(Cl)c1)OCc1cccc(Oc2ccccc2)c1
range C

Dear colleague, I would appreciate it if you could identify the bin for CC(C)C(=Nc1ccc2c(c1)OC(C)(C)O2)OCc1cccc(Oc2ccc(F)cc2)c1 and reply at your convenience.
range A

* * *

Reported LC50, MW values are given for each entry in this list.
# Test system: Maize weevil [Sitophilus Zeamais (Motschulsky)]
# Test summary: Maize weevil insecticidal test
# Assay type: in vivo
# Conditions used: adult weevils, percent in solution; 48 hours
# Description: The compounds in Tables 1 and 2 above were tested for insecticidal activity using the following testing procedures. LC50 values, based on the results of these tests and calculated according to dosage-mortality curves, are expressed in Table 3. Maize weevil [Sitophilus Zeamais (Motschulsky)]: Test compounds were diluted in a 50:50 acetone:water solution. […] Mortality was recorded after 48 hours. […]

- Compound: "CC(C)(F)C(=Nc1ccc(F)c(Cl)c1)OCc1cc(Oc2ccc(F)cc2)ccc1F [Compound 316]"
  LC50, MW: "> 0.01%"
- Compound: "CCS(=O)(=O)c1ccc(N=C(OCc2cccc(Oc3ccccc3)c2)C(C)C)cc1Cl [Compound 112]"
  LC50, MW: "> 0.01%"
- Compound: "CC(C)C(=Nc1ccc(F)c(Cl)c1)OCc1cccc(Oc2ccccc2)c1 [Compound 81]"
  LC50, MW: "0.005%"

LC50, MW reading for CC(Cl)(Cl)C(=Nc1ccc(Cl)cc1)OCc1cccc(Oc2ccccc2)c1 [Compound 3] : > 0.01%

* * *

# Tested on: Cabbage Looper [Trichoplusia ni (Hubner)]
# Test summary: Cabbage looper insecticidal test
# Type: in vivo
# Conditions used: second-instar larvae, percent in solution; 3-5 days
Property measured: LC50, CL (%)
Express your answer in %, writing the number without its unit.

Study these solved cases before continuing.
- Cpd smiles: "CC(Cl)(Cl)C(=Nc1ccc(Cl)cc1)OCc1cccc(Oc2ccccc2)c1"
  LC50, CL [%]: 0.012
- Cpd smiles: "CC(C)C(=Nc1ccc(F)c(Cl)c1)OCc1cccc(Oc2ccc(C#N)cc2)c1"
  LC50, CL [%]: 0.0006
- Cpd smiles: "CC(C)C(=Nc1ccc2c(c1)OCO2)OCc1cc(Oc2ccc(F)cc2)ccc1Cl"
  LC50, CL [%]: 0.1
- Cpd smiles: "CC(C)C(=Nc1ccc(F)c(Cl)c1)OCc1cccc(Oc2c(F)c(F)c(F)c(F)c2F)c1"
  LC50, CL [%]: 0.02

Next item in the queue.
Entry CC(C)CC(=Nc1ccc(C(C)C)cc1)OCc1cccc(Oc2ccc(F)cc2)c1 , tested on Cabbage Looper [Trichoplusia ni (Hubner)], has a reported LC50, CL of 0.033

* * *

# Test system: Cabbage Looper [Trichoplusia ni (Hubner)]
# Test summary: Cabbage looper insecticidal test
# Assay type: in vivo
# Conditions used: second-instar larvae, percent in solution; 3-5 days
Property measured: LC50, CL (%)
Return type: number; implicit unit %.

- Compound: "CC(C)C(=Nc1ccc2c(c1)OCO2)OCc1cccc(Oc2ccccc2)c1"
  System: "Cabbage Looper [Trichoplusia ni (Hubner)]"
  Property measured: "LC50, CL"
  Result: 0.0004
- Compound: "CC(C)C(=Nc1ccc(F)c(Cl)c1)OCc1cccc(Nc2ccc(F)cc2)c1"
  System: "Cabbage Looper [Trichoplusia ni (Hubner)]"
  Property measured: "LC50, CL"
  Result: 0.003
- Compound: "CC(C)C(=Nc1ccc(C(F)(F)F)c(Br)c1)OCc1ccc(F)c(Oc2ccc(Cl)cc2)c1 [Compound 433]"
  System: "Cabbage Looper [Trichoplusia ni (Hubner)]"
  Property measured: "LC50, CL"
  Result: 0.00017
- Compound: "CC(C)C(=Nc1ccc(F)c(Cl)c1)OCc1cc(F)cc(Oc2ccc(F)cc2)c1"
  System: "Cabbage Looper [Trichoplusia ni (Hubner)]"
  Property measured: "LC50, CL"
  Result: 0.005
- Compound: "CC(C)C(=Nc1ccc(Cl)c(C(F)(F)F)c1)OCc1cccc(Oc2ccccc2)n1"
  System: "Cabbage Looper [Trichoplusia ni (Hubner)]"
  Property measured: "LC50, CL"
  Result: 0.002
- Compound: "CC(C)C(=Nc1ccc(I)cc1)OCc1ccc(F)c(Oc2ccc(F)cc2)c1"
  System: "Cabbage Looper [Trichoplusia ni (Hubner)]"
  Property measured: "LC50, CL"
  Result: 0.00027
- Compound: "CC(C)C(=Nc1ccc(Cl)cc1)OCc1ccc(F)c(Oc2ccccc2)c1"
  System: "Cabbage Looper [Trichoplusia ni (Hubner)]"
  Property measured: "LC50, CL"
  Result: 0.0005

Next item in the queue.
Record summary for CCC(C)C(=Nc1ccc(Cl)cc1)OCc1cccc(Oc2ccccc2)c1 (centres unmarked) : reported LC50, CL = 0.007

* * *

Items are presented alongside their recorded LC50, CL.
# System: Cabbage Looper [Trichoplusia ni (Hubner)]
# Test summary: Cabbage looper insecticidal test
# Type: in vivo
# Conditions used: second-instar larvae, percent in solution; 3-5 days

Known results for molecules:
- Molecule: "COc1cc(N=C(OCc2cccc(Oc3ccccc3)c2)C(C)C)cc(C(F)(F)F)c1 [Compound 76]"
  LC50, CL: "0.002%"
- Molecule: "Fc1ccc(Oc2cccc(COC(=Nc3cccc(C(F)(F)F)c3)C3CC3)c2)cc1 [Compound 294]"
  LC50, CL: "0.017%"
- Molecule: "COc1ccc(N=C(OCc2cccc(Oc3ccccc3)c2)C(C)C)cc1Cl [Compound 95]"
  LC50, CL: "0.0025%"
- Molecule: "Clc1ccc(N=C(OCc2cccc(Oc3ccccc3)c2)C(Cl)Cl)c(Cl)c1 [Compound 4]"
  LC50, CL: "0.007%"
- Molecule: "C#CCc1c(F)c(F)c(COC(=Nc2ccc(F)c(Cl)c2)C(C)C)c(F)c1F [Compound 520]"
  LC50, CL: "> 0.1%"

Record Fc1ccc(Oc2cccc(COC(=Nc3ccc(F)c(Cl)c3)C(F)(F)C(F)(F)F)c2)cc1 [Compound 258] , field LC50, CL: 0.003%

Query COc1ccc(N=C(OCc2cccc(Oc3ccccc3)c2)C(C)C)cc1 [Compound 160] yields LC50, CL of 0.005%

So, CC(C)C(=Nc1ccc2c(c1)OC(C)(C)O2)OCc1cccc(Oc2ccccc2)c1 [Compound 182] ? Its LC50, CL was 0.0006%

Reported LC50, CL ( CC(C)C(=Nc1ccc(F)c(Cl)c1)OCc1cc(Oc2ccc(F)cc2)c(F)cc1F [Compound 343] ) = 0.00027%

// Cc1cc(Br)ccc1N=C(OCc1cccc(Oc2ccccc2)c1)C(C)C [Compound 133] : LC50, CL value = 0.005%

Notebook: CCC(C)C(=Nc1ccc(Cl)c(Cl)c1)OCc1cccc(Oc2ccc(F)cc2)c1 (stereo not shown) [Compound 211] , LC50, CL read as 0.0017%

For CCc1cccc(N=C(OCc2cccc(Oc3ccccc3)c2)C(C)C)c1 [Compound 154] the molecule record lists LC50, CL as 0.004%

molecule CC(C)C(=Nc1ccc(C(F)(F)F)c(Br)c1)OCc1ccc(F)c(Oc2ccccc2)c1 [Compound 434] , LC50, CL observed: 0.0017%

Recorded result, CCOc1ccc(N=C(OCc2ccc(F)c(Oc3ccc(Cl)cc3)c2)C(C)C)cc1 [Compound 372] , LC50, CL: > 0.1%

Value of LC50, CL reported for the molecule CC(C)C(=Nc1ccc(C#N)cc1)OCc1cccc(Oc2ccccc2)c1 [Compound 172] is 0.002%

Briefly, LC50, CL measured for CC(C)C(=Nc1ccc(F)c(Br)c1)OCc1ccc(F)c(Oc2ccc(Cl)cc2)c1 [Compound 298] : 0.0001%

Form: molecule = CC(C)C(=Nc1ccc(F)c(Cl)c1)OCc1coc(Cc2ccccc2)c1 [Compound 474] ; LC50, CL = 0.0012%

Lookup result for CCc1ccc(N=C(OCc2cccc(Oc3ccc(F)cc3)c2)C(C)C)cc1Cl [Compound 438] ; measured LC50, CL: 0.0009%

The molecule listed as CC(C)C(=Nc1ccc2c(c1)OC(F)(F)O2)OCc1ccc(F)c(Oc2ccccc2)c1 [Compound 285] shows LC50, CL equal to 0.000075%
